# System: Leishmania donovani
# measurementNotes: In vitro inhibitory activity against Leishmania donovani (PP75)
# Type: functional, organism-based
metric: IC50

query: Would you mind telling me what IC50 value was observed for COc1ccc(CCc2cc(O)cc(OC)c2)cc1 ?
result: ≥ 100 µg/mL

query: How about Cn1nc(Cc2ccc3c(c2)OCO3)c2ccccc2c1=O ?
result: ≥ 100 µg/mL

query: How about O=C(Cc1ccc(Cl)cc1)c1ccccc1C(=O)N1CCCCC1 ?
result: ≥ 100 µg/mL

query: How about OC1(Cc2ccccc2)c2ccccc2C2=NCCCN21 (stereo unspecified) ?
result: 45 µg/mL

query: How about COc1ccc(/C=C2\OC(=O)c3ccccc32)cc1 ?
result: ≥ 100 µg/mL

query: How about COc1ccc(CC2(O)c3ccccc3C3=NCCCN32)cc1 (stereo unspecified) ?
result: ≥ 100 µg/mL

###

Provide the reported IC50 of each item.
# System: Leishmania donovani
# measurementNotes: In vitro inhibitory activity against Leishmania donovani (PP75)
# Assay type: functional, organism-based

query: Would you mind telling me what IC50 value was observed for COc1ccc(/C=C2/c3ccccc3C(=O)N2NC(C)(C)C)cc1 ?
result: ≥ 100 µg/mL

query: How about COc1ccc(C(=O)C(=O)c2ccccc2C(=O)N2CCCCC2)cc1OC ?
result: ≥ 100 µg/mL

query: How about COc1ccc(Cc2nn(C)c(=O)c3ccccc23)cc1 ?
result: ≥ 100 µg/mL

query: How about OC1(Cc2ccc3c(c2)OCO3)c2ccccc2C2=NCCN21 (stereo unspecified) ?
result: ≥ 100 µg/mL

query: How about O=C1O/C(=C\c2ccc3c(c2)OCO3)c2ccccc21 ?
result: ≥ 100 µg/mL

query: How about OC1(Cc2ccc(Cl)cc2)c2ccccc2C2=NCCN21 (stereo unspecified) ?
result: ≥ 100 µg/mL

query: How about COc1ccc(Cc2nn(C)c(=O)c3ccccc23)cc1OC ?
result: ≥ 100 µg/mL

query: How about O=C1O/C(=C\c2ccccc2)c2ccccc21 ?
result: 45 µg/mL

query: How about COc1ccc(C(=O)C(=O)c2ccccc2C(=O)N2CCCCC2)cc1 ?
result: 80 µg/mL

query: How about Oc1nnc(Cc2ccc(Cl)cc2)c2ccccc12 ?
result: ≥ 100 µg/mL

query: How about N=C(N)c1ccc(OCCCCCOc2ccc(C(=N)N)cc2)cc1 ?
result: 1.3 µg/mL

###

# System: Leishmania amazonensis
# measurementNotes: In vitro inhibitory activity against Leishmania amazonensis (PH8)
# Type: functional, organism-based
metric: IC50

query: Would you mind telling me what IC50 value was observed for OC1(Cc2ccc3c(c2)OCO3)c2ccccc2C2=NCCN21 (stereo unspecified) ?
result: ≥ 100 µg/mL

query: How about COc1cc(CC2(O)c3ccccc3C3=NCCCN32)cc(OC)c1OC (stereo unspecified) ?
result: ≥ 100 µg/mL

query: How about COc1ccc(CCc2cc(OC(C)=O)cc(OC)c2C(=O)O)cc1 ?
result: 62 µg/mL

query: How about COc1ccc(CC2(O)c3ccccc3C3=NCCN32)cc1OC (stereo unspecified) ?
result: ≥ 100 µg/mL

query: How about Cn1nc(Cc2ccc3c(c2)OCO3)c2ccccc2c1=O ?
result: ≥ 100 µg/mL

query: How about COc1cc(/C=C2\OC(=O)c3ccccc32)cc(OC)c1OC ?
result: 52 µg/mL
